Data credit: patent US8575135B2

Reported pEC50 by item:
- Test system: stable HCV 1a RLuc replicon cells (genotype 1a H77 replicon)
- Run Description: microbe, parasite or virus in culture
- Format: cell-based
- Condition Context: Hepatitis C virus, read-out: 1a
pEC50: −log10 of the molar value.

Compound | Target Or System | pEC50
CC[C@H](C)[C@H](NC(=O)OC)C(=O)N1C[C@@H](COC)C[C@H]1c1ncc(-c2ccc3c(c2)COc2cc4c(ccc5nc([C@@H]6CC[C@H](C)N6C(=O)[C@@H](NC(=O)OC)C(C)C)[nH]c54)cc2-3)[nH]1 [Example OF] | stable HCV 1a RLuc replicon cells (genotype 1a H77 replicon) | > 9.00

stdin: Consider the compound COC(=O)N[C@H](C(=O)N1CCCC1c1ncc(-c2ccc3c(c2)COc2cc4c(ccc5nc([C@@H]6C[C@@H]7CCC[C@@H]7N6C(=O)[C@@H](NC(=O)OC)C(C)C)[nH]c54)cc2-3)[nH]1)C(C)C (stereo partly shown) [Example PO] and give its recorded pEC50.
stdout: > 9.00

stdin: Consider the compound COC[C@H]1C[C@@H](c2ncc(-c3ccc4c(c3)COc3cc5c(ccc6nc([C@@H]7C[C@H]8C[C@H]8N7C(=O)[C@@H](NC(=O)OC)C(C)C)[nH]c65)cc3-4)[nH]2)N(C(=O)[C@H](NC(=O)OC)c2ccccc2)C1 [Example PR] and give its recorded pEC50.
stdout: > 9.00

stdin: Consider the compound COC(=O)N[C@H](C(=O)N1[C@@H](C)CC[C@H]1c1ncc(-c2ccc3c(c2)COc2cc4c(ccc5nc([C@@H]6C[C@H](C)CN6C(=O)[C@H](NC(=O)OC)c6ccccc6)[nH]c54)cc2-3)[nH]1)C(C)C [Compound 617] and give its recorded pEC50.
stdout: > 9.00
